These data points were gathered from patent US11208387B2.

Tested on: Pseudomonas aeruginosa PA01
experimentalDetails: Serum MIC, broth micro-dilution
Type: cell-based
recordedConditions: Pseudomonas aeruginosa, PA01; 50% v/v mouse serum; compounds of Table 1; Table 7; read-out: P. aeruginosa 01 Serum MIC

# compound, testSystem, MIC, µM
records = [
    ("Cc1nc(-c2ccc(OC(C)C)cc2)nc(C)c1C(=O)N[C@@H](CCN)C(=O)N(C)[C@@H]1C(=O)N[C@@H](C)C(=O)N[C@H](C(=O)O)Cc2ccc(O)c(c2)-c2cc1ccc2OCCN (racemic)", "Pseudomonas aeruginosa PA01", 73),
    ("Cc1nc(-c2ccc(C(C)(C)C)cc2)nc(C)c1C(=O)N[C@@H](CCN)C(=O)N(C)[C@@H]1C(=O)N[C@@H](C)C(=O)N[C@H](C(=O)O)Cc2cc(OCCN)c(O)c(c2)-c2cc1ccc2O (racemic)", "Pseudomonas aeruginosa PA01", 64),
    ("Cc1nc(-c2ccc(C(C)(C)C)cc2)nc(C)c1C(=O)N[C@@H](CCN)C(=O)N(C)[C@@H]1C(=O)N[C@@H](C)C(=O)N[C@H](C(=O)O)Cc2ccc(OCCN)c(c2)-c2cc1cc1[nH]c(=O)oc21 (racemic)", "Pseudomonas aeruginosa PA01", 64),
    ("CCC1(Oc2ccc(-c3nc(C)c(C(=O)N[C@@H](CCN)C(=O)N(C)[C@@H]4C(=O)N[C@@H](C)C(=O)N[C@H](C(=O)O)Cc5ccc(OCCN)c(c5)-c5cc4ccc5OCCN)c(C)n3)cc2)CC1 (racemic)", "Pseudomonas aeruginosa PA01", 64),
    ("CCCCCCOc1ccc(-c2nc(C)c(C(=O)N[C@@H](CCN)C(=O)N(C)[C@@H]3C(=O)N[C@@H](C)C(=O)N[C@H](C(=O)O)Cc4ccc(OCCN)c(c4)-c4cc3ccc4OCCN)c(C)n2)cc1 (racemic)", "Pseudomonas aeruginosa PA01", 64),
    ("Cc1nc(-c2ccc(C(C)(C)C)cc2)nc(C)c1C(=O)N[C@@H](CCN)C(=O)N(C)[C@@H]1C(=O)N[C@@H](C)C(=O)N[C@H](C(=O)O)Cc2ccc(OCCN)c(c2)-c2cc1ccc2OCCN (racemic)", "Pseudomonas aeruginosa PA01", 67),
]

----------
Tested on: Klebsiella pneumoniae ATCC 700603
experimentalDetails: Serum MIC, broth micro-dilution
Type: cell-based
recordedConditions: Klebsiella pneumoniae, ATCC700603; 50% v/v mouse serum in Mueller Hinton II cation adjusted Broth, 35° C., 22 hours; Table 4; read-out: K pneumoniae 700603 Serum MIC

# chemicalStructure, MIC [µM]
rows = [
    ("C[C@@H]1NC(=O)[C@@H](N(C)C(=O)[C@H](CCN)NC(=O)c2c(N)nc(-c3ccc(C(C)(C)C)cc3)nc2C(F)F)c2cc(OC[C@H](O)CN)c(O)c(c2)-c2cc(ccc2OC[C@H](O)CN)C[C@@H](C(=O)O)NC1=O", 0.25),
    ("Cc1nc(-c2ccc(C(C)(C)C)cc2)nc(N)c1C(=O)N[C@@H](CCNS(N)(=O)=O)C(=O)N(C)[C@@H]1C(=O)N[C@@H](C)C(=O)N[C@H](C(=O)O)Cc2ccc(OC[C@H](O)CN)c(c2)-c2cc1cc(OC[C@H](O)CN)c2O", 1.5),
    ("Cc1nc(-c2ccc(C(C)(C)C)c(F)c2O)nc(N)c1C(=O)N[C@@H](CNS(N)(=O)=O)C(=O)N(C)[C@@H]1C(=O)N[C@@H](C)C(=O)N[C@H](C(=O)O)Cc2ccc(OC[C@H](O)CN)c(c2)-c2cc1cc(OC[C@H](O)CN)c2O", 1),
]

----------
System: Pseudomonas aeruginosa PA01
experimentalDetails: Serum MIC, broth micro-dilution
Type: cell-based
recordedConditions: Pseudomonas aeruginosa, PA01; 50% v/v mouse serum in Mueller Hinton II cation adjusted Broth, 35° C., 22 hours; Table 4; read-out: P. aeruginosa 01 Serum MIC
Reported MIC values follow for various molecules

# molecule, testSystem, MIC (µM)
rows = [
    ("Cc1nc(N2CCC(C(C)(C)C)CC2)nc(N)c1C(=O)N[C@@H](CCN)C(=O)N(C)[C@@H]1C(=O)N[C@@H](C)C(=O)N[C@H](C(=O)O)Cc2ccc(OC[C@H](O)CN)c(c2)-c2cc1cc(OC[C@H](O)CN)c2O [Example 25]", "Pseudomonas aeruginosa PA01", 64),
    ("C[C@@H]1NC(=O)[C@@H](N(C)C(=O)[C@H](CNS(N)(=O)=O)NC(=O)c2c(N)nc(-c3ccc(C(C)(C)C)cc3)nc2C(F)F)c2cc(OC[C@H](O)CN)c(O)c(c2)-c2cc(ccc2OC[C@H](O)CN)C[C@@H](C(=O)O)NC1=O [Example 69]", "Pseudomonas aeruginosa PA01", 6),
    ("Cc1nc(-c2ccc(CC3CC3)cc2)nc(N)c1C(=O)N[C@@H](CNS(N)(=O)=O)C(=O)N(C)[C@@H]1C(=O)N[C@@H](C)C(=O)N[C@H](C(=O)O)Cc2ccc(OC[C@H](O)CN)c(c2)-c2cc1cc(OC[C@H](O)CN)c2O [Example 34]", "Pseudomonas aeruginosa PA01", 12),
    ("Cc1nc(-c2ccc(C(C)(C)C)cc2)nc(CN)c1C(=O)N[C@@H](CNS(N)(=O)=O)C(=O)N(C)[C@@H]1C(=O)N[C@@H](C)C(=O)N[C@H](C(=O)O)Cc2ccc(OC[C@H](O)CN)c(c2)-c2cc1cc(OC[C@H](O)CN)c2O [Example 72]", "Pseudomonas aeruginosa PA01", 8),
]
